meta.source: ChEMBL document CHEMBL1135343

Sequence of the target: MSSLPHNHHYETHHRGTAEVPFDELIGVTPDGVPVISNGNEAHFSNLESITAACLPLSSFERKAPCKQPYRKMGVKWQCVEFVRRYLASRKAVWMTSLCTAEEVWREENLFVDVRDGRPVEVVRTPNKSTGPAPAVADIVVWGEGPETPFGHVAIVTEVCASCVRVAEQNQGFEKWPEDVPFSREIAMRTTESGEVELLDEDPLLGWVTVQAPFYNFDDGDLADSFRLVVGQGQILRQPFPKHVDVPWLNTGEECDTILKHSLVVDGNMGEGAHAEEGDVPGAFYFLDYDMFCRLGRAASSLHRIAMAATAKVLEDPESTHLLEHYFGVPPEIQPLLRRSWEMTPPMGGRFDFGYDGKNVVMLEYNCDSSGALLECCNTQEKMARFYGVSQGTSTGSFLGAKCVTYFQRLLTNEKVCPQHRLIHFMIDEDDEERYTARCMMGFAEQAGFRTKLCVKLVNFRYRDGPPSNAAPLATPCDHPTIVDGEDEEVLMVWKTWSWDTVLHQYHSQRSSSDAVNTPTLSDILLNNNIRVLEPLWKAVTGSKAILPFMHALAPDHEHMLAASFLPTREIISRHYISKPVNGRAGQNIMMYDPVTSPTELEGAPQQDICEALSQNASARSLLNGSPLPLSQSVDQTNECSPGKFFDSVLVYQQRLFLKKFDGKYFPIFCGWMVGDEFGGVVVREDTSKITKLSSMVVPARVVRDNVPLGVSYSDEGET
pIC50: −log10 of the molar value. Numbered stars: 1 amine (or outer) side, 2 acyl side, 3 side chain; on linkers, the order of the positions; unused ones are H or OH. Peptide text beside a SMILES is read from it. γGlu = O=C(O)[C@H](CCC(=O)[*:2])N[*:1]
observation type: pIC50

CC(C)C[C@H](NC(=O)CC[C@H](N)C(=O)O)C(=O)N[C@@H](CC(N)=O)C(=O)O (γGlu-Leu-Asn-OH); 3.85

[I] CC(C)C[C@H](NC(=O)CC[C@H](N)C(=O)O)C(=O)N[C@@H](C)C(=O)O (γGlu-Leu-Ala-OH)
[II] CC(C)C[C@H](NC(=O)CC[C@H](N)C(=O)O)C(=O)N[C@@H](CC(=O)O)C(=O)O (γGlu-Leu-Asp-OH)
[III] CC(C)C[C@H](NC(=O)CC[C@H](N)C(=O)O)C(=O)N[C@@H](CCCN=C(N)N)C(=O)O
[IV] CC(C)C[C@H](NC(=O)[C@H](CC(C)C)NC(=O)CC[C@H](N)C(=O)O)C(=O)O
Req: Ascending sort, pIC50. Reply with the item labels sorted in the order that was asked for.
Resp: IV, II, I, III

###

Target chain: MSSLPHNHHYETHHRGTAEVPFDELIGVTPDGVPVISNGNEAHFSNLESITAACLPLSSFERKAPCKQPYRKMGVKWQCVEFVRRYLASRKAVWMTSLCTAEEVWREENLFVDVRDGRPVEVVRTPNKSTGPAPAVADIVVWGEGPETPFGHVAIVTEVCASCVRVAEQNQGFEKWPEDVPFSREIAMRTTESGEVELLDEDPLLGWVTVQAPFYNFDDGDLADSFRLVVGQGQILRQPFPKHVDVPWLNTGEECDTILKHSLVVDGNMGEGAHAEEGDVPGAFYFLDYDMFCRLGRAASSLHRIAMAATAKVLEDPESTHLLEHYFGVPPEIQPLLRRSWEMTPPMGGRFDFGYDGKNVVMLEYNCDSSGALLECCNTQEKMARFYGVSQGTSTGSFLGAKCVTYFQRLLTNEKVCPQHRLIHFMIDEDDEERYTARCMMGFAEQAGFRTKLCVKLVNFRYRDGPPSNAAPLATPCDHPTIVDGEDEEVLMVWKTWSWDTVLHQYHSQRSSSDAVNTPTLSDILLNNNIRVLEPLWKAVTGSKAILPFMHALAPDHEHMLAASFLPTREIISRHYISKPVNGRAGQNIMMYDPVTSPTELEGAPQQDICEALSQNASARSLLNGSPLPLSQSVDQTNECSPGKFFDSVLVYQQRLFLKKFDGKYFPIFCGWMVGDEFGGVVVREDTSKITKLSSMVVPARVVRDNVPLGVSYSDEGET
Numbered stars: 1 amine (or outer) side, 2 acyl side, 3 side chain; on linkers, the order of the positions; unused ones are H or OH. Square brackets hold non-standard residues; d marks the D form. Peptide text beside a SMILES is read from it. γGlu = O=C(O)[C@H](CCC(=O)[*:2])N[*:1]; Dab = NCC[C@H](N)C(=O)O; Nva = CCC[C@H](N)C(=O)O
observation type: IC50 (µM)

CC(C)C[C@H](NC(=O)CC[C@H](N)C(=O)O)C(=O)N[C@@H](CCN)C(=O)O (γGlu-Leu-[Dab]-OH); 13.7

[A] CC(C)C[C@H](NC(=O)CC[C@H](N)C(=O)O)C(=O)N[C@@H](CCCCN)C(=O)O (γGlu-Leu-Lys-OH)
[B] CC(C)C[C@H](NC(=O)CC[C@H](N)C(=O)O)C(=O)N[C@@H](CCC(=O)O)C(=O)O (γGlu-Leu-Glu-OH)
[C] CCC[C@H](NC(=O)[C@H](CC(C)C)NC(=O)CC[C@H](N)C(=O)O)C(=O)O (γGlu-Leu-[Nva]-OH)
Req: Sort by IC50, descending. Reply with the item labels sorted in the order that was asked for.
Resp: B, C, A

###

Biological target: Glutathionylspermidine synthase (Crithidia fasciculata) (UniProt P90518)
Test: Tested against glutathionylspermidine synthetase (GspS) in Crithidia fasciculata
Set-up: concentration or dose not given beside the values
Conditions: concentration not given here
Numbered stars: 1 amine (or outer) side, 2 acyl side, 3 side chain; on linkers, the order of the positions; unused ones are H or OH. Square brackets hold non-standard residues; d marks the D form. Peptide text beside a SMILES is read from it. γGlu = O=C(O)[C@H](CCC(=O)[*:2])N[*:1]; Orn = NCCC[C@H](N)C(=O)O
observation type: inhibition (%)

CC(C)C[C@H](NC(=O)CC[C@H](N)C(=O)O)C(=O)N[C@@H](CCCCN)C(=O)O (γGlu-Leu-Lys-OH); 93
CC(C)C[C@H](NC(=O)CC[C@H](N)C(=O)O)C(=O)N[C@@H](CCCN)C(=O)O (γGlu-Leu-[Orn]-OH); 95
CC(C)C[C@H](NC(=O)CC[C@H](N)C(=O)O)C(=O)N[C@@H](CC(=O)O)C(=O)O (γGlu-Leu-Asp-OH); 69
CC(C)C[C@H](NC(=O)CC[C@H](NC(=O)OC(C)(C)C)C(=O)OC(C)(C)C)C(=O)N[C@@H](CCCCNCCCNC(=O)OC(C)(C)C)C(=O)O; 62

[1] CC(C)C[C@H](NC(=O)CC[C@H](N)C(=O)O)C(=O)N[C@@H](CCCN=C(N)N)C(=O)O
[2] CC(C)C[C@H](NC(=O)CC[C@H](N)C(=O)O)C(=O)N[C@@H](CCC(=O)O)C(=O)O (γGlu-Leu-Glu-OH)
Req: I would appreciate it if you could say which entry, 1 or 2 , has the lower inhibition value. Field: selected label. Fill in the label of the entry you choose.
Resp: 2
(2: 60%, 1: 95%)

###

Target: Glutathionylspermidine synthase (Crithidia fasciculata)
Test: Tested against glutathionylspermidine synthetase (GspS) in Crithidia fasciculata
Parameters: concentration or dose not given beside the values
Conditions: concentration not given here
Numbered stars: 1 amine (or outer) side, 2 acyl side, 3 side chain; on linkers, the order of the positions; unused ones are H or OH. Peptide text beside a SMILES is read from it. γGlu = O=C(O)[C@H](CCC(=O)[*:2])N[*:1]
observation type: inhibition (%)

CC(C)C[C@H](NC(=O)[C@H](CC(C)C)NC(=O)CC[C@H](N)C(=O)O)C(=O)O; 59
CC(C)C[C@H](NC(=O)CC[C@H](N)C(=O)O)C(=O)N[C@@H](C)C(=O)O (γGlu-Leu-Ala-OH); 87
CC(C)C[C@H](NC(=O)CC[C@H](N)C(=O)O)C(=O)N[C@@H](CCCCNCCCCN)C(=O)O; 94
CCCC[C@H](NC(=O)[C@H](CC(C)C)NC(=O)CC[C@H](N)C(=O)O)C(=O)O; 53
CC(C)C[C@H](NC(=O)CC[C@H](N)C(=O)O)C(=O)N[C@@H](CC(N)=O)C(=O)O (γGlu-Leu-Asn-OH); 68
CC(C)C[C@H](NC(=O)CC[C@H](N)C(=O)O)C(=O)N[C@@H](CCCCNCCCN)C(=O)O; 93

[A] CC(C)C[C@H](NC(=O)CC[C@H](N)C(=O)O)C(=O)NCC(=O)O (γGlu-Leu-Gly-OH)
[B] CC(C)C[C@H](NC(=O)CC[C@H](N)C(=O)O)C(=O)N[C@@H](CO)C(=O)O (γGlu-Leu-Ser-OH)
Req: I would appreciate it if you could say which entry, A or B , has the lower inhibition value. Field: selected label. Fill in the label of the entry you choose.
Resp: A
